# SYSTEM: Virulence sensor histidine kinase PhoQ (Salmonella typhimurium (strain LT2 / SGSC1412 / ATCC 700720))
# Sequence (whole entry): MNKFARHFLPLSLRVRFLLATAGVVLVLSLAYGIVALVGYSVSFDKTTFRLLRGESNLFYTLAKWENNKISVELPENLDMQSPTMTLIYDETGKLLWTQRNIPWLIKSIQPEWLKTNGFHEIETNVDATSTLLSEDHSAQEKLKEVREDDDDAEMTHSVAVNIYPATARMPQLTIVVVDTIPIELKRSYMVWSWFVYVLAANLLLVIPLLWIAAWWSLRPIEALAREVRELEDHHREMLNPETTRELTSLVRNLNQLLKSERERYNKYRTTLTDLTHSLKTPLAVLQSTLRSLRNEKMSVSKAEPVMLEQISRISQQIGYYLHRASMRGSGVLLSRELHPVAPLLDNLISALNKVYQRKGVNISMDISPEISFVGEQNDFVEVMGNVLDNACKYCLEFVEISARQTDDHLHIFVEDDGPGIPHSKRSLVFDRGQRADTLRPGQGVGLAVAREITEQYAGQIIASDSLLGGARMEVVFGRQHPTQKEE
# ASSAY TEXT: Inhibition of recombinant Salmonella typhimurium N-terminal His6-SUMO-tagged DHp-catalytic domain PhoQ (257 to 487 residues) autophosphorylation expressed in Escherichia coli BL21(DE3) at 500 uM preincubated for 10 mins followed by [gamma-32P]-ATP addition after 30 mins by phosphotransferase dot blot assay relative to control
# Design: scale not given: the % may be the effect or the level left
# MEASUREMENT PARAMETERS: Salmonella enterica subsp. enterica serovar Typhimurium
PROPERTY MEASURED: Activity (%)
One number for each entry, in %.

COc1c(C)cnc(Cn2cnc3c(Cl)nc(N)nc32)c1C [BIIB021]    87
CCc1cc(-c2[nH]nc(C)c2-c2ccc3c(c2)OCCO3)c(O)cc1O    9
COc1ccc(-c2c(-c3ccc(O)cc3O)n[nH]c2C)cc1    76

Hi there! I need Activity for each item below, if you can.
1. COc1ccc(-c2c[nH]nc2-c2cc(Cl)c(O)cc2O)cc1
2. CC(C)NCCCn1c(Sc2cc3c(cc2I)OCO3)nc2c(N)ncnc21 [PU-H71]

[62, 103]
